Catalogue of MIC readings, one per entry.
System: enterococci
protocol.description: Minimum inhibitory concentration, microdilution broth method, enterococci
Assay type: cell-based
test.parameters: Enterococcus faecalis, E. faecalis GC 4555; Mueller-Hinton broth, 18-22 hours at 35° C.; read-out: MIC E. faecalis GC 4555
Quick note: give the figure in µg/mL, leave out the unit.

> print(dat)
                         structure.notation  measured.target  unit.abbrev  observed.measurement
1  O=C1O/C(=C\c2ccc(-c3ccc(Cl)cc3)cc2)C(O)=C1c1ccc(Cl)cc1      enterococci        µg/mL                     8
2  CCCc1ccc(-c2ccc(C3=C(O)/C(=C/c4cccc(C(F)(F)F)c4Cl)OC3=O)cc2)cc1      enterococci        µg/mL                     2
3  O=C1O/C(=C\c2ccc3ccccc3c2)C(O)=C1c1ccc2ccccc2c1      enterococci        µg/mL                     8
4  Cc1ccccc1-c1ccc(/C=C2\OC(=O)C(c3cccc(Cl)c3)=C2O)cc1C      enterococci        µg/mL                     4
5  CC(C)(C)c1ccc(-c2ccc(C3=C(O)/C(=C/c4cccc(C(F)(F)F)c4)OC3=O)cc2)cc1      enterococci        µg/mL                     8

Look at this molecule and give its reported MIC. O=C1O/C(=C\c2ccc(-c3ccccc3C(F)(F)F)cc2)C(O)=C1c1ccccc1C(F)(F)F
32

Check CCOc1ccc(-c2ccc(C3=C(O)/C(=C/c4cc(C(F)(F)F)ccc4Cl)OC3=O)cc2)cc1 too.
4

Data origin: patent US7495027B2
